Each recorded value in this set is attributed to ChEMBL document CHEMBL1144253.

# Test system: HFF
# assay: Inhibitory concentration against human respiratory syncytial virus strain A2 in human foreskin fibroblasts
# Format: functional, cell-based
Hi there, I'd appreciate the recorded IC50 for every entry that follows.
Quick reminder: number only, in µM, skip the unit.

# IC50 of NC(=O)CCN(CCC(N)=O)S(=O)(=O)c1cccc(Nc2nc(Nc3cccc(S(=O)(=O)N(CCC(N)=O)CCC(N)=O)c3)nc(Nc3ccc(-c4ccc(Nc5nc(Nc6cccc(S(=O)(=O)N(CCC(N)=O)CCC(N)=O)c6)nc(Nc6cccc(S(=O)(=O)N(CCC(N)=O)CCC(N)=O)c6)n5)cc4S(=O)(=O)O)c(S(=O)(=O)O)c3)n2)c1 = 0.08

Notebook: NC(=O)CN(CC(N)=O)S(=O)(=O)c1cccc(Nc2cc(Nc3ccc(-c4ccc(Nc5cc(Nc6cccc(S(=O)(=O)N(CC(N)=O)CC(N)=O)c6)nc(Nc6cccc(S(=O)(=O)N(CC(N)=O)CC(N)=O)c6)n5)cc4S(=O)(=O)O)c(S(=O)(=O)O)c3)nc(Cl)n2)c1 , IC50 read as 1.8

GET /value?item= NC(=O)CN(CC(N)=O)S(=O)(=O)c1cccc(Nc2nc(Cl)cc(Nc3ccc(-c4ccc(Nc5cc(Cl)nc(Cl)n5)cc4S(=O)(=O)O)c(S(=O)(=O)O)c3)n2)c1 &field=IC50 returns 16.7

The measured IC50 associated with NC(=O)CCCN(CCCC(N)=O)S(=O)(=O)c1cccc(Nc2nc(Nc3cccc(S(=O)(=O)N(CCCC(N)=O)CCCC(N)=O)c3)nc(Nc3ccc(-c4ccc(Nc5nc(Nc6cccc(S(=O)(=O)N(CCCC(N)=O)CCCC(N)=O)c6)nc(Nc6cccc(S(=O)(=O)N(CCCC(N)=O)CCCC(N)=O)c6)n5)cc4S(=O)(=O)O)c(S(=O)(=O)O)c3)n2)c1 reads 0.1

###

# Tested on: Vero
# assay: Inhibitory concentration against herpes simplex 1 strain Patton in vero cells
# Format: functional, cell-based
# test_conditions: Chlorocebus sabaeus
measured_metric: IC50 (µM)
Reply numerically in µM, unit not repeated.

// recorded IC50 for NC(=O)CN(CC(N)=O)S(=O)(=O)c1cccc(Nc2cc(Nc3ccc(-c4ccc(Nc5nc(Nc6cccc(S(=O)(=O)N(CC(N)=O)CC(N)=O)c6)ncc5Cl)cc4S(=O)(=O)O)c(S(=O)(=O)O)c3)nc(Cl)n2)c1 : 25.4

Recorded IC50 (compound NC(=O)CN(CC(N)=O)S(=O)(=O)c1cccc(Nc2cc(Nc3ccc(-c4ccc(Nc5cc(Nc6cccc(S(=O)(=O)N(CC(N)=O)CC(N)=O)c6)nc(Nc6cccc(S(=O)(=O)N(CC(N)=O)CC(N)=O)c6)n5)cc4S(=O)(=O)O)c(S(=O)(=O)O)c3)nc(Cl)n2)c1 ): 18.9

Lab note: NC(=O)CN(CC(N)=O)S(=O)(=O)c1cccc(Nc2nc(Nc3cccc(S(=O)(=O)N(CC(N)=O)CC(N)=O)c3)nc(Nc3ccc(-c4ccc(Nc5nc(Nc6cccc(S(=O)(=O)N(CC(N)=O)CC(N)=O)c6)nc(Nc6cccc(S(=O)(=O)N(CC(N)=O)CC(N)=O)c6)n5)cc4S(=O)(=O)O)c(S(=O)(=O)O)c3)n2)c1 gave IC50 of 7.72

Entry O=S(=O)(O)c1cc(Nc2nc(Nc3cccc(S(=O)(=O)N(CCO)CCO)c3)nc(Nc3cccc(S(=O)(=O)N(CCO)CCO)c3)n2)ccc1-c1ccc(Nc2nc(Nc3cccc(S(=O)(=O)N(CCO)CCO)c3)nc(Nc3cccc(S(=O)(=O)N(CCO)CCO)c3)n2)cc1S(=O)(=O)O — recorded IC50 = 14.7

Query O=S(=O)(O)c1cc(Nc2cc(Nc3cccc(S(=O)(=O)N(CCO)CCO)c3)nc(Nc3cccc(S(=O)(=O)N(CCO)CCO)c3)n2)ccc1-c1ccc(Nc2cc(Nc3cccc(S(=O)(=O)N(CCO)CCO)c3)nc(Nc3cccc(S(=O)(=O)N(CCO)CCO)c3)n2)cc1S(=O)(=O)O yields IC50 of 16.8

Reported IC50 of NC(=O)CN(CC(N)=O)S(=O)(=O)c1cccc(Nc2nc(Cl)cc(Nc3ccc(-c4ccc(Nc5cc(Cl)nc(Cl)n5)cc4S(=O)(=O)O)c(S(=O)(=O)O)c3)n2)c1 : 47.2
